test system: LOX IMVI; assay: NCI tumour cell line growth inhibition, 48 h
Calls of active or inactive are those of the source. Cut-off read from the data, not from the text of the source: active = GI50 up to about 1.1 µM and inactive = higher. Square brackets hold non-standard residues; d marks the D form. Peptide text beside a SMILES is read from it. * marks the point of attachment. ξ: configuration not given here. Propanoyl(3-(4-MeO-Ph)) = COc1ccc(CCC(=O)*)cc1; Thr(3ξ) = CC(O)[C@H](N)C(=O)O; dNMeL = CN[C@H](CC(C)C)C(=O)O; ξLac = CC(O)C(=O)O
Field 'call' accepts YES (active), NO (inactive)

Below, 5 compounds whose answers are already recorded.
CCOC(=O)Cn1nnc2ccc(Nc3nc4ccccc4nc3C(=O)OCC)cc21 | NO
Cc1cccc2c(=O)c3cccc([C@@H](C)C(=O)O)c3oc12 | NO
O=C1CS/C(=N/N=C/c2cn(Cc3ccc(Cl)cc3Cl)c3ccccc23)N1 | NO
CS(=O)(=O)C[S+]([O-])C[S+]([O-])C[S+]([O-])CC(NC(=O)CCC(N)C(=O)O)C(=O)O (stereo not given) | NO
CCOC(=O)c1ccc(/N=C2\Sc3nc4ccccc4n3\C2=N\c2ccc(C(=O)OCC)cc2)cc1 | NO

Q: Per the records of this test, what outcome belongs to Nc1[nH]cnc2ncnc1-2 [ADENINE] ?
A: NO

Q: For "OCCNCN(CNCCO)c1nc(N(CNCCO)CNCCO)nc(N(CNCCO)CNCCO)n1" , what call appears in the results of this test?
A: YES

Q: So what was the verdict on "O=C1c2cscc2C(=O)C1(O)O" in this test?
A: NO

Q: In this assay, the call recorded for "c1cc(NC2=NCCO2)c2c(c1)OCO2" was what?
A: NO

Q: Hello, I am checking results. What call was entered for "NNC(=O)CC(=O)Nc1ccc(Cl)cc1" ?
A: NO

Q: Fill in: this test's call for COC(=O)[C@@H](NC(=O)[C@@H](CC(C)C)N(C)C(=O)[C@@H]1CCCN1C(=O)C(C)O)C(C)OC(=O)CCc1ccc(OC)cc1 (stereo not given in full) (H-[ξLac]P[dNMeL][Thr(3ξ)](Propanoyl(3-(4-MeO-Ph)))-OMe) is ___
A: NO

Q: Test call, this compound: "O=[N+]([O-])/C(Cl)=C(/C(Cl)=C(Cl)Cl)N1CCCCC1"
A: NO

Q: So what was the verdict on COc1ccc(-c2oc3cc(O)c(OC)c(O)c3c(=O)c2O)cc1 [BETULETOL] in this test?
A: NO

Q: Short answer needed: outcome of this test for "O=[N+]([O-])/C=C\c1c[nH]c2ccc(OCc3ccccc3)cc12" ?
A: NO

Q: What was the test verdict on CNC(=O)N(CCCC(NC(C)=O)C(=O)NCc1ccccc1)Cc1ccccc1 (stereo not given) ?
A: NO

Q: Short answer needed: outcome of this test for "CN(C)c1ccc(/C=C(\NC(=O)c2ccccc2)C(=O)NCC(=O)O)cc1" ?
A: NO

Q: Returns: the outcome recorded for "Cc1cc(C)nc(NS(=O)(=O)c2ccc(NC(=O)c3cccc4cc5ccccc5nc34)cc2)n1" in this assay.
A: NO
